test system: H69AR (lung cancer, multidrug resistant); experiment: In vitro cytotoxicity (MTT); format: cell-based, human; conditions: human, 48 h, 50 µg/mL
Marks after values point to notes of the source that are not given here.
measurement-label: %C percentage cytotoxicity H69AR

> print(dat)
                                   compound                 measurement.label  observed.result
1  Cc1cc(/C=C/C#N)cc(C)c1Oc1cc(Nc2ccc(C#N)cn2)nc2ccccc12 [Compound 10b-trans]  %C percentage cytotoxicity H69AR      %C = 0.0 ^c
2  Cc1cc(C#N)cc(C)c1Oc1cc(Nc2ccc(C#N)cn2)nc2ccccc12  %C percentage cytotoxicity H69AR      %C = 0.0 ^c

* * *

test system: MOLT-3 (acute lymphoblastic leukemia); assay: In vitro cytotoxicity (XTT); conditions: at 50 µg/mL; inactive (IC50 ≥ 50 µg/mL)
Marks after values point to notes of the source that are not given here.
measurement-label: %C percentage cytotoxicity MOLT-3

> print(dat)
                                   molecule  observed.result
1  Cc1cc(C=CC#N)cc(C)c1Oc1cc(Nc2ccc(C#N)cc2)c2ccccc2n1 [Compound 11b]     %C = 19.0 ^c
2  Cc1cc(/C=C/C#N)cc(C)c1Oc1cc(Nc2ccc(C#N)cc2)nc2ccccc12 [Compound 9b-trans]     %C = 19.0 ^c
3  N#Cc1ccc(Oc2cc(Oc3ccc(C#N)cc3)c3ccccc3n2)cc1     %C = 11.0 ^c
4  Cc1cc(/C=C\C#N)cc(C)c1Oc1cc(Nc2ccc(C#N)cn2)nc2ccccc12 [Compound 10b-cis]     %C = 11.0 ^c

* * *

tested on: H69AR (lung cancer, multidrug resistant); assay: In vitro cytotoxicity (MTT); assay type: cell-based, human; conditions: human, 48 h, 50 µg/mL
Marks after values point to notes of the source that are not given here.
measurement-label: %C percentage cytotoxicity H69AR

Study these solved cases before continuing.
> print(dat)
                                   compound  observed.result
1  O=Cc1ccc(Oc2cc(Oc3ccc(C=O)cc3)c3ccccc3n2)cc1      %C = 0.0 ^c
2  N#Cc1ccc(Nc2cc(Oc3ccc(C=O)cc3)c3ccccc3n2)cc1     %C = 38.0 ^c
3  Cc1cc(/C=C\C#N)cc(C)c1Oc1cc(Nc2ccc(C#N)cn2)nc2ccccc12 [Compound 10b-cis]      %C = 0.0 ^c
4  Cc1cc(C=O)cc(C)c1Oc1cc(Nc2ccc(C#N)cn2)nc2ccccc12     %C = 21.0 ^c
5  Cc1cc(C#N)cc(C)c1Oc1cc(Oc2c(C)cc(C#N)cc2C)c2ccccc2n1     %C = 38.0 ^c

# evaluate next
### Prompt Notebook entry, H69AR (lung cancer, multidrug resistant) assay: %C percentage cytotoxicity H69AR of `Cc1cc(C#N)cc(C)c1Oc1cc(Nc2ccc(C#N)cc2)nc2ccccc12` = ?
### Response %C = 0.0 ^c

* * *

system: MDA-MB-231 (hormone-independent breast cancer); test: In vitro cytotoxicity (MTT); conditions: at 50 µg/mL; inactive (IC50 ≥ 50 µg/mL)
Marks after values point to notes of the source that are not given here.
measurement-label: %C percentage cytotoxicity MDA-MB-231

> print(dat)
                                   compound  observed.result
1  Cc1cc(/C=C\C#N)cc(C)c1Oc1cc(Nc2ccc(C#N)cn2)nc2ccccc12 [Compound 10b-cis]      %C = 0.0 ^c
2  N#Cc1ccc(Nc2cc(Oc3ccc(C#N)cc3)nc3ccccc23)cc1      %C = 0.0 ^c
